Target: HLA-B*15:01
Assay: IEDB peptide-MHC binding, purified MHC/direct/fluorescence; filed as Kd, often an IC50 or EC50 that approximates it; bounds were set here for any values at or beyond the usual limits of such assays
Conditions: source organism: Yersinia pestis
measuredMetric: Kd

Name the recorded Kd of the item VPRVHNQPQ in your answer.
≥ 20 µM

---

Molecular target: HLA-A*68:02
Assay: IEDB peptide-MHC binding, purified MHC/competitive/radioactivity; filed as Kd, often an IC50 or EC50 that approximates it; bounds were set here for any values at or beyond the usual limits of such assays
Conditions: source organism: Trypanosoma cruzi
measuredMetric: pKd
pKd (log units): -log10 of the concentration in mol/L.

# return pKd of EVLRPTTLV (system: HLA-A*68:02)
8.17
